condition_summary: in ethyl acetate, 318.15 K
observed_property: solubility (mole fraction)
API note: the answer field is a bare number with no unit suffix.

Which solubility (mole fraction) is reported for this compound? NC(N)=NC(N)=NCCc1ccccc1
0.00603

###

condition_summary: in isobutanol, 283.15 K
observed_property: solubility (mole fraction)

Find the recorded solubility (mole fraction) belonging to NC(N)=NC(N)=NCCc1ccccc1 and report it.
0.00063

###

condition_summary: in ethylene glycol, 313.15 K
observed_property: solubility (mole fraction)

Data request, read-out solubility (mole fraction), for NC(N)=NC(N)=NCCc1ccccc1
0.00919

###

condition_summary: in isobutanol, 298.15 K
observed_property: solubility (mole fraction)
Hey, just send me the number, nothing else.

Consider the molecule NC(N)=NC(N)=NCCc1ccccc1 and give its measured solubility (mole fraction).
0.00116

###

condition_summary: in 1,4-dioxane, 313.15 K
observed_property: solubility (mole fraction)
Write the value as a bare number.

# get_value(readout='solubility (mole fraction)', item= NC(N)=NC(N)=NCCc1ccccc1 )
0.00046

###

condition_summary: in NMP, 308.15 K
observed_property: solubility (mole fraction)
Response field accepts a number only; no unit should be typed.

Fill in the blank: the reported solubility (mole fraction) of NC(N)=NC(N)=NCCc1ccccc1 is ____.
0.0337

###

condition_summary: in isopropanol, 278.15 K
observed_property: solubility (mole fraction)
Respond with the number and no other words.

What solubility (mole fraction) value was documented for this compound, NC(N)=NC(N)=NCCc1ccccc1 ?
0.000814

###

condition_summary: in ethanol, 313.15 K
observed_property: solubility (mole fraction)
The answer should be written as a number, with no unit following it.

Recorded solubility (mole fraction) for NC(N)=NC(N)=NCCc1ccccc1 , please?
0.00614

###

condition_summary: in acetonitrile, 308.15 K
observed_property: solubility (mole fraction)
No unit in the answer, please; the number alone is enough.

Sample NC(N)=NC(N)=NCCc1ccccc1 — what was its solubility (mole fraction)?
0.00071

###

condition_summary: in water, 288.15 K
observed_property: solubility (mole fraction)
Number only, no unit.

Find the recorded solubility (mole fraction) belonging to NC(N)=NC(N)=NCCc1ccccc1 and report it.
0.000585

###

condition_summary: in ethyl acetate, 323.15 K
observed_property: solubility (mole fraction)
Respond with the number and no other words.

Please report the recorded solubility (mole fraction) for NC(N)=NC(N)=NCCc1ccccc1 .
0.00695

###

condition_summary: in DMF, 298.15 K
observed_property: solubility (mole fraction)
Form: value (number only, do not type unit).

Give the measured solubility (mole fraction) of NC(N)=NC(N)=NCCc1ccccc1 .
0.0303

###

condition_summary: in DMF, 288.15 K
observed_property: solubility (mole fraction)
Just the number, please, no unit after it.

Sample NC(N)=NC(N)=NCCc1ccccc1 — what was its solubility (mole fraction)?
0.0226

###

condition_summary: in n-propanol, 323.15 K
observed_property: solubility (mole fraction)
# respond with the number and nothing more

Any idea what solubility (mole fraction) was measured for NC(N)=NC(N)=NCCc1ccccc1 ?
0.00452

###

condition_summary: in isobutanol, 318.15 K
observed_property: solubility (mole fraction)
Form field (numeric): enter value without unit.

Could you share which solubility (mole fraction) value was measured for NC(N)=NC(N)=NCCc1ccccc1 ?
0.00229

###

condition_summary: in ethyl acetate, 313.15 K
observed_property: solubility (mole fraction)
Reply with the value as a number alone.

I am curious: what solubility (mole fraction) value has been reported for NC(N)=NC(N)=NCCc1ccccc1 ?
0.00521
